tested-on: human GLP-1 receptor (human, UniProt P43220 24-463)
experiment-description: cell-based or functional assay
Starred links: 1 amine or outer side, 2 acyl side, 3 side chain; linkers in the order of their positions; H or OH if unused. Non-standard residues stand in square brackets, D forms with d. Groups on a side chain read outwards from the residue. No end group written: not given here. *: point of attachment. C20 diacid = O=C(O)CCCCCCCCCCCCCCCCCCC(=O)*; C18 diacid = O=C(O)CCCCCCCCCCCCCCCCC(=O)*; γGlu = O=C(O)[C@H](CCC(=O)[*:2])N[*:1]; AEEA = NCCOCCOCC(=O)O; Aib = CC(C)(N)C(=O)O
Examples of binders with documented EC50 hGLP1R 0.5% hP (CreLuc) follow.

binder	EC50 hGLP1R 0.5% hP (CreLuc), nM
Y[Aib]EGTFTSDYSI[Aib]LEKQAE[Aib]AFVEWLIK([γGlu-γGlu-γGlu-γGlu-C20 diacid])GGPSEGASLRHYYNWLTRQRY-NH2 (also: TFA salt) [Compound 280]	0.44
Y[Aib]EGTFTSDYSI[Aib]LEKQAQ[Aib]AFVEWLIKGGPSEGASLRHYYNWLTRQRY-NH2 (not fully specified (residue 28); also: TFA salt) [Compound 295]	0.14
Y[Aib]EGTFTSDYSI[Aib]LEKQAQ[Aib]AFVEWLIK([γGlu-γGlu-γGlu-γGlu-C18 diacid])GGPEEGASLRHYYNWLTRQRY-NH2 (also: TFA salt) [Compound 272]	0.31
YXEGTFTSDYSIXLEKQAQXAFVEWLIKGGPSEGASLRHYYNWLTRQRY (Aib at 2, 13, 20; K28 side chain acylated with C18DA-gGlu-gGlu-gGlu-gGlu-gGlu-AHX; C-terminal amide (NH2)) [Compound 304]	0.35
Y[Aib]EGTFTSDYSI[Aib]LEKQAQ[Aib]EFVEWLIK([AEEA-AEEA-γGlu-γGlu-γGlu-C20 diacid])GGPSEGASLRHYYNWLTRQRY-NH2 (also: TFA salt) [Compound 273]	0.75
Y[Aib]EGTFTSDYSI[Aib]LEKQAQ[Aib]EFVEWLIK([AEEA-AEEA-γGlu-γGlu-γGlu-C18 diacid])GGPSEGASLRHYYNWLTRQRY-NH2 (also: TFA salt) [Compound 284]	0.51
